# target-or-system: human CB2 (hCB2) receptor (Homo sapiens)
# Construct: expressed in transfected cells; host or cells: CHO-K1
# Sequence (P34972 whole entry): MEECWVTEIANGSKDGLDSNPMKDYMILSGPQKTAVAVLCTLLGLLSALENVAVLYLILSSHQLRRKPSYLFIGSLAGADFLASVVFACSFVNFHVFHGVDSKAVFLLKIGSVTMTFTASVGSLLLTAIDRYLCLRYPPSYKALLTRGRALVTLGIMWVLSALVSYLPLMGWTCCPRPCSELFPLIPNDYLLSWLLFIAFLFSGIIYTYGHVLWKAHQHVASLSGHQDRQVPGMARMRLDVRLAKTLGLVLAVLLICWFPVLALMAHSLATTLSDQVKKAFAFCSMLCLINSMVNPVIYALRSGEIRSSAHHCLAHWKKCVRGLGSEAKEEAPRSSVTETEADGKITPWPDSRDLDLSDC
# assay: Inhibition of forskolin-activated cAMP production upon activation of hCB2 (HTRF), CHO-K1 cells
# Format: cell-based
# condition-info: hCB2-CHO-K1 cells, forskolin-activated cAMP, pEC50=-log(EC50); read-out: CB2 pEC50 (converted)
Below, each entry is listed alongside its reported log10(EC50).
Units before log transform: nM; reported quantity: EC50; transform: log10.

Solved entries:
> print(dat)
                                   compound  outcome.measure  recorded.measurement
1  CCNS(=O)(=O)c1ccc(S(=O)(=O)c2ccc3c(c2)nc(C(C)(C)C)n3CC2CCOCC2)s1 [Co. No. 59]      log10(EC50)                  0.05
2  COc1ccc(S(=O)(=O)c2ccc3c(c2)nc(C(C)(C)C)n3CC2CCOCC2)cn1 [Co. No. 54]      log10(EC50)                 -0.03
3  CC(C)(C)c1nc2cc(S(=O)(=O)c3ccc(OCC(F)(F)F)nc3)ccc2n1CC1CCOCC1 [Co. No. 108]      log10(EC50)                  0.41
4  COc1ncc(S(C)(=O)=O)cc1S(=O)(=O)c1ccc2c(c1)nc(C(C)(C)C)n2CC1CCOCC1 [Co. No. 78]      log10(EC50)                  0.86
5  CC(C)(C)c1nc2cc(S(=O)(=O)c3ccnc(F)c3)ccc2n1CC1CCS(=O)(=O)CC1 [Co. No. 133]      log10(EC50)                  0.60

Okay, next one:
stdin: # input compound: CC(C)(C)c1nc2cc(S(=O)(=O)c3ccnc(C(F)(F)F)c3)ccc2n1CC1CCOCC1 [Co. No. 119] ; wanted: its log10(EC50)
stdout: 0.85

###

Below, each entry is listed alongside its reported ratio CB2 agonism over CB1 agonism.
# target-or-system: human CB2 (hCB2) receptor (Homo sapiens)
# Construct: expressed in transfected cells; host or cells: CHO-K1
# assay: Inhibition of forskolin-activated cAMP production upon activation of hCB2 (HTRF), CHO-K1 cells
# Type: cell-based
# condition-info: Table C-1; selectivity hCB2 over hCB1
Reply with the value as a number alone.

Solved entries:
> print(dat)
                                   compound  recorded.measurement
1  CC(=O)NCCOc1cc(S(=O)(=O)c2ccc3c(c2)nc(C(C)(C)C)n3CC2CCOCC2)ccn1 [Co. No. 121]                   912
2  CC(C)(C)c1nc2cc(S(=O)(=O)c3ccnc(F)c3)ccc2n1CC1CCC(=O)CC1 [Co. No. 134]                  2786
3  COC(=O)c1cc(S(=O)(=O)c2ccc3c(c2)nc(C(C)(C)C)n3CC2CCOCC2)c[nH]1 [Co. No. 75]                  2291
4  CC(C)(C)c1nc2cc(S(=O)(=O)c3cccc(C#N)n3)ccc2n1CC1CCOCC1 [Co. No. 98]                   794
5  Cc1cc(S(=O)(=O)c2ccc3c(c2)nc(CC(C)(C)C)n3CC2CCOCC2)ccn1 [Co. No. 24]                   407

stdin: # input compound: Cc1oc(S(=O)(=O)c2ccc3c(c2)nc(C(C)(C)C)n3CC2CCOCC2)cc1S(C)(=O)=O [Co. No. 68] ; wanted: its ratio CB2 agonism over CB1 agonism
stdout: 116

stdin: # input compound: CC(C)(C)c1nc2cc(S(=O)(=O)c3cc(Cl)cc(Cl)n3)ccc2n1CC1CCOCC1 [Co. No. 10] ; wanted: its ratio CB2 agonism over CB1 agonism
stdout: 12883

stdin: # input compound: CC(=O)NCc1ccc(S(=O)(=O)c2ccc3c(c2)nc(C(C)(C)C)n3CC2CCOCC2)cn1 [Co. No. 117] ; wanted: its ratio CB2 agonism over CB1 agonism
stdout: 219
